MEASUREMENT TARGET: LRRK2, WT (GST-tagged truncated LRRK2) (Homo sapiens (Human))
Sequence (Q5S007 970-2527): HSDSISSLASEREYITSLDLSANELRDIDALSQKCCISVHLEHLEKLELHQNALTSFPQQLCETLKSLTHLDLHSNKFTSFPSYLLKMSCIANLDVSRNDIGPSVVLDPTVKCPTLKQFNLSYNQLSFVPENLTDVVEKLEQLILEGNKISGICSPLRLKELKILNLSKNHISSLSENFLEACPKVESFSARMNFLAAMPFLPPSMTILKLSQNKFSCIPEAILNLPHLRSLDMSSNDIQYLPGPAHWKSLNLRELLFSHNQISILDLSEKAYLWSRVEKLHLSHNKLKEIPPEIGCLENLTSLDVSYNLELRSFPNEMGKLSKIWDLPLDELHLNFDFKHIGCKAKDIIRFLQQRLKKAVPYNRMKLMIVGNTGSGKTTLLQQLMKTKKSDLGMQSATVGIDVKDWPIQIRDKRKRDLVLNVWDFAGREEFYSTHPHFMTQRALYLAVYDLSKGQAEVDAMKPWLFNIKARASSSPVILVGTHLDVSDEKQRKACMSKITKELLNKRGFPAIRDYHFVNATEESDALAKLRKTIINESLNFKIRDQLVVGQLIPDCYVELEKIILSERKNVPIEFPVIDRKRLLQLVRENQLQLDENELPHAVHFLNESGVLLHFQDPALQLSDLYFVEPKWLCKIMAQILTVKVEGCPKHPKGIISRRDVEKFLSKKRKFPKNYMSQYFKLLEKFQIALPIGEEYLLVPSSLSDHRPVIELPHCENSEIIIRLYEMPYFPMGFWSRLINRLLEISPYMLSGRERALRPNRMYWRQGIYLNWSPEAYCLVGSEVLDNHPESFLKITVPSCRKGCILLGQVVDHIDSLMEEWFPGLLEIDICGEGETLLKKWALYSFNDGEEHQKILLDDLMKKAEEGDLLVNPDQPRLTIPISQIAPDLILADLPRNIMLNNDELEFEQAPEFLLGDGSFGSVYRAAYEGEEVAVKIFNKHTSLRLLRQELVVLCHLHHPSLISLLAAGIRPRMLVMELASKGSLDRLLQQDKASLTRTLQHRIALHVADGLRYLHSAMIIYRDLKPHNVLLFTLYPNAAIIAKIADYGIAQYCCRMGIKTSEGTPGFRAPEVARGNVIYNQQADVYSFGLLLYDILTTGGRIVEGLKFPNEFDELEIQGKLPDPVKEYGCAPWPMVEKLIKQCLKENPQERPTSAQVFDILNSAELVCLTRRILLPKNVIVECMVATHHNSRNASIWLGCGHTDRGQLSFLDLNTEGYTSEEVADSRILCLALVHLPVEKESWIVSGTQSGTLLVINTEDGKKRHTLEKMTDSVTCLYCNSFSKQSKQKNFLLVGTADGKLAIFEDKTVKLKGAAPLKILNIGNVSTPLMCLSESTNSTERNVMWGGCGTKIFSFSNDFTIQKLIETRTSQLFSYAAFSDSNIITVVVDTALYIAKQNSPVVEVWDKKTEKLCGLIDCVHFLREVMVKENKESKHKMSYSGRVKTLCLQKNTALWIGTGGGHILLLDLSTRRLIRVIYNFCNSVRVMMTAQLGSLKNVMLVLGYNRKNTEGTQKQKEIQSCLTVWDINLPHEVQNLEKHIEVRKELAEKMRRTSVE
MEASUREMENT DESCRIPTION: LRRK2 kinase assay (Lantha Screen), wild type
CONDITION PARAMETERS: 100 nM LRRKtide, 1 mM ATP, 2 μg/mL enzyme; geometric mean of 2-4 determinations unless otherwise indicated
QUANTITY MEASURED: pIC50
Scale: pIC50 equals -log10([C]), with [C] in mol/L.

Quote pIC50 reported for CN1CC(n2c(C3CCC(F)C3)nc3cnc4ccc(C#N)cc4c32)C(F)(F)C1 (stereo not shown) [Example 59] please.
7.52

Quote pIC50 reported for CN1CC(n2c(C3CCC(F)C3)nc3cnc4ccc(C#N)cc4c32)C(F)(F)C1 (stereo not shown) [Example 57] please.
8.34

Quote pIC50 reported for CC1(C)C[C@H](n2c([C@@H]3CC[C@@H](F)C3)nc3cnc4ccc(C#N)cc4c32)CCO1 [Example 55] please.
5.60

Quote pIC50 reported for C[C@@H]1C[C@H](n2c(C3CCCO3)nc3cnc4ccc(Cl)cc4c32)CCO1 (stereo partly shown) [Example 9] please.
7.73

Quote pIC50 reported for CN1CC[C@@H](n2c3c(cnc4ccc(C#N)cc43)nc2[C@H]2CC[C@@H](F)CC2)C1 [Example 23] please.
7.96

Quote pIC50 reported for C[C@@H]1C[C@H](n2c3c(cnc4ccc(Cl)cc43)nc2[C@H]2CC[C@@H](F)CC2)CCO1 [Example 1] please.
8.14

Quote pIC50 reported for C[C@@H]1C[C@H](n2c(C3CC(C)(F)C3)nc3cnc4ccc(Cl)cc4c32)CCO1 (stereo partly shown) [Example 3] please.
8.17

Quote pIC50 reported for C[C@@H]1C[C@H](n2c3c(cnc4ccc(C#N)cc43)nc2[C@H]2C[C@@H](F)C2)CCO1 [Example 19] please.
7.79

Quote pIC50 reported for C[C@@H]1C[C@H](n2c3c(cnc4ccc(C#N)cc43)nc2[C@H]2CC[C@@H](F)CC2)CCO1 [Example 15] please.
8.17

Quote pIC50 reported for CC1CC(c2nc3cnc4ccc(Cl)cc4c3n2[C@@H]2CCO[C@H](C)C2)CO1 (stereo partly shown) [Example 10] please.
7.64

Quote pIC50 reported for N#CC[C@@H]1C[C@H](n2c3c(cnc4ccc(F)cc43)nc2[C@H]2CC[C@@H](F)CC2)CCO1 [Example 29] please.
8.19

Quote pIC50 reported for C[C@@H]1C[C@H](n2c([C@H]3CCOC3)nc3cnc4ccc(C(F)(F)F)cc4c32)CCO1 [Example 26] please.
8.01

Quote pIC50 reported for C[C@@H]1C[C@H](n2c(C3CCCCC3(F)F)nc3cnc4ccc(C#N)cc4c32)CCO1 (stereo partly shown) [Example 20] please.
7.75

Quote pIC50 reported for C[C@@H]1C[C@H](n2c(C3CCC(F)(F)CC3)nc3cnc4ccc(Cl)cc4c32)CCO1 [Example 8] please.
7.80

Quote pIC50 reported for CN1CC[C@@H](n2c([C@H]3CCOC3)nc3cnc4ccc(C#N)cc4c32)C1 [Example 25] please.
7.49
